- assayed system: Procathepsin L (Homo sapiens)
- Sequence (P07711 whole entry): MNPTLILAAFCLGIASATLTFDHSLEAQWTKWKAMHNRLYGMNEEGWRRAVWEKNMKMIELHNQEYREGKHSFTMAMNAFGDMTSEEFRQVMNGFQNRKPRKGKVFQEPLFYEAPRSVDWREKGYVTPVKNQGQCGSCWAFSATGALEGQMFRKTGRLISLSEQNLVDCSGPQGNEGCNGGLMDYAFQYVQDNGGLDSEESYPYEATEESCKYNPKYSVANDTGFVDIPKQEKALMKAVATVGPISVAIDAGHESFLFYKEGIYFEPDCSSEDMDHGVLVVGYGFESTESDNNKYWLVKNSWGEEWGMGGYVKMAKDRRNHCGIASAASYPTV
Record form. Attribute: pKi. Fill in for each entry.
In simple prose, pKi is minus the logarithm base ten of a concentration in moles per litre.

What value of pKi has been reported for the following molecule? CC(C)C[C@H](N[C@@H](c1ccc(-c2ccccc2)cc1)C(F)(F)F)C(=O)NC1(C#N)CC1 6.10

Item: CC(C)C[C@H](N[C@@H](c1ccc(-c2cncnc2)cc1)C(F)(F)F)C(=O)N[C@H](C#N)Cc1ccccc1 7.60

Item: COc1ccc(C[C@H](N[C@@H](c2ccccc2)C(F)(F)F)C(=O)N[C@@H](C#N)Cc2ccccc2)cc1 6.20

Item: CC(C)C[C@H](N[C@@H](c1ccccc1)C(F)(F)F)C(=O)N[C@H](C#N)Cc1ccccc1 8.30

* * *

- assayed system: Cruzipain (Trypanosoma cruzi)
- procedure details: Inhibition of Trypanosoma cruzi cruzain assessed as initial velocity using Z-Phe-Arg-7-amido-4-methylcoumarin as substrate preincubated for 2 mins followed by susbtrate addition by fluorescence based analysis
Note to self: use YES only for V0 readings below 4 RFU/s; a reading exactly at 4 RFU/s still gets NO.

Given the entry N#CC1(NC(=O)[C@H](Cc2ccccc2)N[C@@H](c2ccccc2)C(F)(F)F)CC1 , would its reported V0 be below 4 RFU/s? YES

Item: CC(C)C[C@H](N[C@@H](c1ccc(-c2cncnc2)cc1)C(F)(F)F)C(=O)N[C@H](C#N)Cc1ccccc1 YES

Item: COc1ccc(C[C@H](N[C@@H](c2ccccc2)C(F)(F)F)C(=O)NC2(C#N)CC2)cc1 YES

Item: COc1ccc(C[C@H](N[C@H](c2ccccc2)C(F)(F)F)C(=O)O)cc1 NO

Item: CC(C)C[C@H](N[C@H](c1ccccc1)C(F)(F)F)C(=O)NC1(C#N)CC1 YES

Item: COc1ccc(C[C@H](N[C@@H](c2ccccc2)C(F)(F)F)C(=O)O)cc1 YES

Item: COc1ccc(C[C@H](N[C@H](c2ccccc2)C(F)(F)F)C(=O)NC2(C#N)CC2)cc1 YES

Item: O=C(O)[C@H](Cc1c[nH]c2ccccc12)N[C@@H](c1cccc(Cl)c1)C(F)(F)F YES

Item: CC(C)C[C@H](N[C@@H](c1ccc(-c2ccccc2)cc1)C(F)(F)F)C(=O)NC1(C#N)CC1 YES

Item: CC(C)C[C@H](N[C@@H](c1ccc(-c2ccccc2)cc1)C(F)(F)F)C(=O)N[C@H](C#N)Cc1ccccc1 YES

Item: N#CC1(NC(=O)[C@H](Cc2ccccc2)N[C@@H](c2cccc(Cl)c2)C(F)(F)F)CC1 YES

Item: N#CC1(NC(=O)[C@H](Cc2ccccc2)N[C@H](c2cccc(Cl)c2)C(F)(F)F)CC1 NO

Item: CC(C)C[C@H](N[C@@H](c1ccc(-c2ccc(F)cc2)cc1)C(F)(F)F)C(=O)NC1(C#N)CC1 YES

Item: O=C(O)[C@H](Cc1c[nH]c2ccccc12)N[C@H](c1cccc(Cl)c1)C(F)(F)F NO

Item: N#CC1(NC(=O)[C@H](Cc2ccccc2)N[C@@H](c2ccc(Br)cc2)C(F)(F)F)CC1 YES

Item: CC(C)C[C@H](N[C@H](c1ccccc1)C(F)(F)F)C(=O)N[C@H](C#N)Cc1ccccc1 YES

Item: N#CC1(NC(=O)[C@H](Cc2ccccc2)N[C@H](c2ccccc2)C(F)(F)F)CC1 YES

* * *

- assayed system: Cruzipain (Trypanosoma cruzi, UniProt P25779)
- Sequence (P25779 whole entry): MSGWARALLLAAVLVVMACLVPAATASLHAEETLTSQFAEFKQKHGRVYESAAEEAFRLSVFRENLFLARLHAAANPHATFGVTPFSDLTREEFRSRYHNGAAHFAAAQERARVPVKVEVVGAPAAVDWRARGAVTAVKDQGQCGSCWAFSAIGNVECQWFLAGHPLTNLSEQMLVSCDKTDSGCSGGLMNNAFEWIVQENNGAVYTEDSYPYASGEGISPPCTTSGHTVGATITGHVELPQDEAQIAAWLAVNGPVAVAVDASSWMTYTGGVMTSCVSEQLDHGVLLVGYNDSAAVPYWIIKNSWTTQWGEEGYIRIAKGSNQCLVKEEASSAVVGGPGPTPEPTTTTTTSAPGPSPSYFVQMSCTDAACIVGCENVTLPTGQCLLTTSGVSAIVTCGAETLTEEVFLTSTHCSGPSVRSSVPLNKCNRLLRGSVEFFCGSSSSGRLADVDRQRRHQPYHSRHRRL
- procedure details: Inhibition of Trypanosoma cruzi cruzain using Z-Phe-Arg-7-amido-4-methylcoumarin as substrate preincubated for 2 mins followed by susbtrate addition by fluorescence based analysis
endpoint label: Ki (µM)
Answer with a number only, understood to be in µM.

What value of Ki has been reported for the following molecule? CC(C)C[C@H](N[C@H](c1ccccc1)C(F)(F)F)C(=O)N[C@H](C#N)Cc1ccccc1 0.398

Item: N#CC1(NC(=O)[C@H](Cc2ccccc2)N[C@H](c2cccc(Cl)c2)C(F)(F)F)CC1 3.16

Item: CC(C)C[C@H](N[C@@H](c1ccccc1)C(F)(F)F)C(=O)NC1(C#N)CC1 0.0398

Item: N#CC1(NC(=O)[C@H](Cc2ccccc2)N[C@@H](c2ccccc2)C(F)(F)F)CC1 1

Item: CC(C)C[C@H](N[C@@H](c1ccc(-c2ccccc2)cc1)C(F)(F)F)C(=O)NC1(C#N)CC1 0.00794

Item: N#CC1(NC(=O)[C@H](Cc2ccccc2)NC(=O)c2ccccc2)CC1 0.316

Item: COc1ccc(C[C@H](N[C@@H](c2ccccc2)C(F)(F)F)C(=O)N[C@@H](C#N)Cc2ccccc2)cc1 0.398

Item: CC(C)C[C@H](N[C@H](c1ccccc1)C(F)(F)F)C(=O)NC1(C#N)CC1 0.2

Item: CC(C)C[C@H](NC(=O)c1ccccc1)C(=O)NC1(C#N)CC1 0.0501

Item: COc1ccc(C[C@H](N[C@@H](c2ccccc2)C(F)(F)F)C(=O)NC2(C#N)CC2)cc1 3.98

Item: CC(C)C[C@H](NC(=O)c1ccccc1)C(=O)N[C@H](C#N)Cc1ccccc1 0.0501

Item: N#CC1(NC(=O)[C@H](Cc2ccccc2)N[C@@H](c2ccc(Br)cc2)C(F)(F)F)CC1 2

Item: N#C[C@@H](Cc1ccccc1)NC(=O)[C@H](Cc1ccccc1)N[C@@H](c1ccccc1)C(F)(F)F 2.51

Item: CC(C)C[C@H](N[C@H](c1ccc(-c2ccc(F)cc2)cc1)C(F)(F)F)C(=O)NC1(C#N)CC1 0.0794

Item: CC(C)C[C@H](N[C@@H](c1ccc(-c2cncnc2)cc1)C(F)(F)F)C(=O)N[C@H](C#N)Cc1ccccc1 0.00158

Item: CC(C)C[C@H](N[C@H](c1ccc(-c2ccccc2)cc1)C(F)(F)F)C(=O)N[C@H](C#N)Cc1ccccc1 0.251

Item: CC(C)C[C@H](N[C@@H](c1ccccc1)C(F)(F)F)C(=O)N[C@H](C#N)Cc1ccccc1 0.00158

Item: CC(C)C[C@H](N[C@@H](c1ccc(-c2ccccc2)cc1)C(F)(F)F)C(=O)N[C@H](C#N)Cc1ccccc1 0.000631

Item: COc1ccc(C[C@H](N[C@H](c2ccccc2)C(F)(F)F)C(=O)NC2(C#N)CC2)cc1 7.94

Item: CC(C)C[C@H](N[C@H](c1ccc(-c2ccccc2)cc1)C(F)(F)F)C(=O)NC1(C#N)CC1 0.0631

Item: COc1ccc(C[C@H](N[C@H](c2ccccc2)C(F)(F)F)C(=O)N[C@H](C#N)Cc2ccccc2)cc1 3.98

* * *

- procedure details: Lipophilicity, log Kw of compound by HPLC analysis
- Type: physicochemical
endpoint label: logKw
Kindly provide the number alone.

What value of logKw has been reported for the following compound? CC(C)C[C@H](N[C@H](c1ccccc1)C(F)(F)F)C(=O)NC1(C#N)CC1 1.1

Item: N#CC1(NC(=O)[C@H](Cc2ccccc2)N[C@H](c2cccc(Cl)c2)C(F)(F)F)CC1 1.7

Item: CC(C)C[C@H](N[C@@H](c1ccc(-c2ccccc2)cc1)C(F)(F)F)C(=O)NC1(C#N)CC1 2.6

Item: COc1ccc(C[C@H](N[C@@H](c2ccccc2)C(F)(F)F)C(=O)NC2(C#N)CC2)cc1 1.4

Item: CC(C)C[C@H](N[C@@H](c1ccc(-c2ccccc2)cc1)C(F)(F)F)C(=O)N[C@H](C#N)Cc1ccccc1 3.2

Item: N#CC1(NC(=O)[C@H](Cc2ccccc2)N[C@@H](c2ccc(Br)cc2)C(F)(F)F)CC1 1.7

Item: CC(C)C[C@H](N[C@H](c1ccccc1)C(F)(F)F)C(=O)N[C@H](C#N)Cc1ccccc1 2.2

Item: N#C[C@@H](Cc1ccccc1)NC(=O)[C@H](Cc1ccccc1)N[C@@H](c1ccccc1)C(F)(F)F 2.6

Item: CC(C)(F)C[C@H](N[C@@H](c1ccc(-c2ccc(S(C)(=O)=O)cc2)cc1)C(F)(F)F)C(=O)NC1(C#N)CC1 2

Item: N#CC1(NC(=O)[C@H](Cc2ccccc2)N[C@@H](c2ccccc2)C(F)(F)F)CC1 1

* * *

- procedure details: Lipophilicity, log Kw of compound by HPLC analysis
- Type: physicochemical
Record form. Attribute: logKw. Fill in for each entry.
Kindly provide the number alone.

What value of logKw has been reported for the following compound? COc1ccc(C[C@H](N[C@H](c2ccccc2)C(F)(F)F)C(=O)NC2(C#N)CC2)cc1 1.5

Item: CC(C)C[C@H](N[C@H](c1ccc(-c2ccccc2)cc1)C(F)(F)F)C(=O)N[C@H](C#N)Cc1ccccc1 3.1

Item: CC(C)C[C@H](N[C@H](c1ccc(-c2ccccc2)cc1)C(F)(F)F)C(=O)NC1(C#N)CC1 2.8

Item: COc1ccc(C[C@H](N[C@@H](c2ccccc2)C(F)(F)F)C(=O)N[C@@H](C#N)Cc2ccccc2)cc1 2.7

Item: CC(C)C[C@H](N[C@@H](c1ccccc1)C(F)(F)F)C(=O)N[C@H](C#N)Cc1ccccc1 2.3

Item: N#CC1(NC(=O)[C@H](Cc2ccccc2)N[C@H](c2ccccc2)C(F)(F)F)CC1 1.4

Item: CC(C)C[C@H](N[C@H](c1ccc(-c2ccc(F)cc2)cc1)C(F)(F)F)C(=O)NC1(C#N)CC1 2.8

Item: COc1ccc(C[C@H](N[C@H](c2ccccc2)C(F)(F)F)C(=O)N[C@H](C#N)Cc2ccccc2)cc1 2.7
